- subject-of-test: human CD33 (human, UniProt P20138 18-364)
- Sequence (P20138 18-364): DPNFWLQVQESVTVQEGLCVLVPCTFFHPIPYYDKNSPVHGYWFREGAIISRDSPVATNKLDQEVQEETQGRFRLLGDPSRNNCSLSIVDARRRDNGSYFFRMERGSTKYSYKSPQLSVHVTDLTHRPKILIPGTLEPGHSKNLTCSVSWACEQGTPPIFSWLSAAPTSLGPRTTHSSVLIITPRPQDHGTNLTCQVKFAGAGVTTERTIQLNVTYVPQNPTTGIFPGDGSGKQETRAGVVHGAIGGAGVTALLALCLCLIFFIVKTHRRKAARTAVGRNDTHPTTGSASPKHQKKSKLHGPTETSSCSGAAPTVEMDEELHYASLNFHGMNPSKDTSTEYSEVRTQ
- assay: cell-based or functional assay
# Percent CD33 Surface Expression, DC % CD33 per entry
property: Percent CD33 Surface Expression, DC % CD33 (%)

- binder: "C-66 (antibody, V domains shown, human IgG1) VH: QLQLQESGPGLVKPSETLSLTCTVSGGSISSSSYYWGWIRQPPGKGLEWIGSIYYSGSTYYNPSLKSRVTISVDTSKNQFSLKLSSVTAADTAVYYCAREVGYPYGMDVWGQGTTVTVSS VL: DIQLTQSPSSLSASVGDRVTITCQASQDISNFLNWYQQKPGKAPKLLIYDASNLETGVPSRFSGSGSGTDFTFTISSLQPEDIATYYCQQYSDLPTFGGGTKVEIK"
  reading-unit: "%"
  result-number: 77.4
- binder: "C-91 (antibody, V domains shown, human IgG1) VH: EVQLVESGGGLVQPGGSLRLSCAASGFTFSSYWMSWVRQAPGKGLEWVANIKSDGSEKYYVDSVKGRFTISRDNAKNSLYLQMNSLRAEDTAVYYCARDVGGDYSGSDLASYWGQGTLVTVSS VL: DIQMTQSPSSLSASVGDRVTITCRASQSISSYLNWYQQKPGKAPKLLIYAASSLQSGVPSRFSGSGSGTDFTLTISSLQPEDFATYYCQQGYDPPLTFGGGTKVEIK"
  reading-unit: "%"
  result-number: 18.8
- binder: "C-75 (antibody, V domains shown, human IgG1) VH: EVQLLESGGGLVQPGGSLRLSCAASGFTFSSYAMSWVRQAPGKGLEWVSAISASGGSTYYADSVKGRFTISRDNSKNTLYLQMNSLRAEDTAVYYCARLHMTGTASSGMDVWGQGTTVTVSS VL: DIVMTQSPDSLAVSLGERATINCKSSQSVLYSSNNKNYLAWYQQKPGQAPRLLIYGASSRATGIPDRFSGSGSGTDFTLTISRLEPEDFAVYYCQQDYSSPLTFGGGTKVEIK"
  reading-unit: "%"
  result-number: 88.7
